system: T1, Ep-CAM (UniProt P16422 24-265, limits assumed)
T1 sequence (looked up): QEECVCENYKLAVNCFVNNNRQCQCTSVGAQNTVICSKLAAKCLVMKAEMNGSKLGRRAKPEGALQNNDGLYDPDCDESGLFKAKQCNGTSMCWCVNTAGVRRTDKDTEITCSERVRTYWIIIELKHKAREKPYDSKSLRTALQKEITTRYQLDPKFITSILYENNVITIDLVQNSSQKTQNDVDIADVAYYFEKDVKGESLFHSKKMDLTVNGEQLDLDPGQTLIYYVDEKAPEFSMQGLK
assay_protocol: Biacore, Fab periplasmic extract on immobilised Epcam
quantity_measured: fold difference in affinity vs original (fold)
Reply numerically in fold, unit not repeated.

Worked cases, answers included:
Lab book: fold difference in affinity vs original of ING-1 Fab, heavy chain W50L (Fab, V domains shown, Fab in periplasmic extract) VH: QIQLVQSGPELKKPGETVKISCKASGYTFTKYGMNWVKQAPGKGLKWMGLINTYTEEPTYGDDFKGRFAFSLETSASTANLQINNLKSEDTATYFCARFGSAVDYWGQGTSVTVSS VL: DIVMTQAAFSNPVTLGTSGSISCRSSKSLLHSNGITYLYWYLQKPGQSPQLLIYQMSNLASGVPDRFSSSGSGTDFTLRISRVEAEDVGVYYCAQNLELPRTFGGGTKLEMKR noted as 0.04

Lab book: fold difference in affinity vs original of ING-1 Fab, heavy chain T55G (Fab, V domains shown, Fab in periplasmic extract) VH: QIQLVQSGPELKKPGETVKISCKASGYTFTKYGMNWVKQAPGKGLKWMGWINTYGEEPTYGDDFKGRFAFSLETSASTANLQINNLKSEDTATYFCARFGSAVDYWGQGTSVTVSS VL: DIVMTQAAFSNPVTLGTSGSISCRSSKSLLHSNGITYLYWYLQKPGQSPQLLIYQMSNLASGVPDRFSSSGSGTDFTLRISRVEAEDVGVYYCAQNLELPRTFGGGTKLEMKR noted as 0.02

Now let's try a different one.
Lab book: fold difference in affinity vs original of ING-1 Fab, heavy chain W50I (Fab, V domains shown, Fab in periplasmic extract) VH: QIQLVQSGPELKKPGETVKISCKASGYTFTKYGMNWVKQAPGKGLKWMGIINTYTEEPTYGDDFKGRFAFSLETSASTANLQINNLKSEDTATYFCARFGSAVDYWGQGTSVTVSS VL: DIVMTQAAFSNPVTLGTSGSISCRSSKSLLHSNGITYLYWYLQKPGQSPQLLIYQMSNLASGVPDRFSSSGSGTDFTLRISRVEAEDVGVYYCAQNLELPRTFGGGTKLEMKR noted as 0.07
